# stoichiometry N annotations
# Measurement Target: T1, Ac-[residues removed]-NH2 (NPNA4 peptide) (Plasmodium falciparum (synthetic CSP …))
# T1 construct: also called 16-mer peptide; source: synthetic peptide; bought: Innopep Inc
# Protocol Details: ITC; peptide in the syringe, Fab (~10 uM) in the cell; DPBS, 25 °C; single-site binding model; triplicate, mean ± SD; No. of sites = peptide per Fab
# Assay Setup: both partners purified
Test Readout: stoichiometry N

Binder | Recorded Result
Fab317 (Fab, V domains shown, also called mAb317; source: ExpiCHO cells, purified (HiTrap Protein G, SEC)) VH: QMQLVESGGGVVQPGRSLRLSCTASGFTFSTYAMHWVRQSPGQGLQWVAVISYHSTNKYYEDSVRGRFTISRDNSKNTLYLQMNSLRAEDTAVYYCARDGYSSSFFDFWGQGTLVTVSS VL: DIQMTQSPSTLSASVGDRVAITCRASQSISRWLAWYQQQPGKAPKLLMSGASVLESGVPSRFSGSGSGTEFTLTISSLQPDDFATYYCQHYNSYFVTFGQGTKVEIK | 0.95
Fab366 (Fab, V domains shown, also called mAb366; source: ExpiCHO cells, purified (HiTrap Protein G, SEC)) VH: QVQLVQSGAEVKKPGASARVSCKASGYTLTDFYLHWVRQAPGQGLEWMGWLNPHSGGTNYAQKFLGRVSMTRDTSISTAYMELNKLISDDTAVYFCVRSDQEALRGAFDIWGQGTMVFVSS VL: DIQMTQSPSSLSASVGDTVTITCRASQSINDYLNWYQQKPGKAPKLLIYATSSLHSGVPSRFSGSGFGTDFTLTISSLQPEDSATYLCQQSHSLWTFGQGTKVEVK | 1.21
Fab356 (Fab, V domains shown, also called mAb356; source: ExpiCHO cells, purified (HiTrap Protein G, SEC)) VH: VQLVESGGGVVQPGRSLRLSCAASGFTFRNFGMHWVRQTPGKGLEWVAVIWHDGSNKFYADSVEGRFTISRDNSKNMIYLQMNSLRVEDTAIYYCARDSLFYDHDNSGYYGYWGQGTLVTVSS VL: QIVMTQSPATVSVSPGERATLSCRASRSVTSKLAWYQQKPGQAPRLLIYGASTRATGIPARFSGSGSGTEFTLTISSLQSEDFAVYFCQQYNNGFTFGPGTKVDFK | 0.542
Fab364 (Fab, V domains shown, also called mAb364; source: ExpiCHO cells, purified (HiTrap Protein G, SEC)) VH: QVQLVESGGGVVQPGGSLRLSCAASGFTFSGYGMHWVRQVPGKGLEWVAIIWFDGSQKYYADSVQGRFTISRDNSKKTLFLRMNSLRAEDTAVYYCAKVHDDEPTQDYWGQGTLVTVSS VL: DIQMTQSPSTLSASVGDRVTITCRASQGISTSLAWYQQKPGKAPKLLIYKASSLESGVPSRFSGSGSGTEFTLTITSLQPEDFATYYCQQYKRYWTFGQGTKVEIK | 0.634
Fab311 (Fab, V domains shown, also called mAb311; source: ExpiCHO cells, purified (HiTrap Protein G, SEC)) VH: EVQLVESGGGVVPPGRSLRLSCATSGFTFSNYGMHWVRQAPGKGLEWVAIIWYDGSRNFYAASVEGRFTISRDNSKNTLYLQMNSLRVEDTAVYYCARAAYYDTSGYGDYWGQGTLVTVSS VL: ESVLTQPPSVSGAPGQTVTISCTGGSSNIGAGYDVHWYQQLPGTAPKLLIYGNINRPSGVPDRFSGSKSGTSASLAITGLQAEDEADYYCQSYDRRLSGSWVFGGGTKLTVL | 0.578
Fab399 (Fab, V domains shown, also called mAb399; source: ExpiCHO cells, purified (HiTrap Protein G, SEC)) VH: EVQLVESGGGLVQPGRSLRLSCTTSGFTFGDYAMSWFRQAPGKGLEWVGFIRSKGFGGTAEYAAFVKGRFTISRDDSRSIAYLQMTSLKPEDTAVYYCSRVGVVIATAVYWGQGTLVTVSS VL: DILMTQTPLSLSVTPGQPASISCKSSQSLLDNDGKTYLYWYLQKPGQSPQLLIYEVSNRFSGVPERFSGSGSGTDFTLKIRRVEAEDVGVYYCMQRIDLPWTFGQGTKVEIK | 1.74
Fab224 (Fab, V domains shown, also called mAb224; source: ExpiCHO cells, purified (HiTrap Protein G, SEC)) VH: EVQLVESGGGLVQPGRSLRLPCTASGFSFGDHAMSWVRQAPGKGLEWVGFIRKTTYGATTHYAAAVRGRFTISRDDSKSIVYLQMNSLKTEDTAVYFCTRVQLDYGPGYQYYGMDVWGQGTTVTVSS VL: ESVLTQPPSVSGAPGQRVTISCTGMNSNIGAGYDVYWYQQLPGRAPKLLIYGNSNRPSGVPDRFSGSRSGTSASLAITGLQAEDEADYYCQSYDTSLNGWAFGGGTKLTVL | 1.26
Fab239 (Fab, V domains shown, also called mAb239; source: ExpiCHO cells, purified (HiTrap Protein G, SEC)) VH: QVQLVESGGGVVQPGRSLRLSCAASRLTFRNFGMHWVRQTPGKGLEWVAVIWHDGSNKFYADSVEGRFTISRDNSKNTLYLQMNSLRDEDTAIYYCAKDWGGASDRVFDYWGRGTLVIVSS VL: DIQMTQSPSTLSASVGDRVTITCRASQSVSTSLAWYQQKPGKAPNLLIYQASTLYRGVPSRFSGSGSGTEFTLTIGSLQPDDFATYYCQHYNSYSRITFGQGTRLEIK | 0.572
Fab395 (Fab, V domains shown, also called mAb395; source: ExpiCHO cells, purified (HiTrap Protein G, SEC)) VH: QEQLVESGGGVVQPGRSLRLSCAAASEFCFSCYGMHWVRQAPGKGLEWVAVIWHDGSNQHFADSVKGRFTISRDNSKNIMYLQMNSLRAEDTAVYYCASATRYDILTGAFDYWGQGTLVTVSS VL: DIQMTQSPSTLSASVGDRVTITCRASQSISTWLAWYQQKPGKAPKLLIYKASSLESGVPSRFSGSGSGTEFTLTISSLQPDDFATYYCQQYSRYWTFGQGTKVEIK | 0.608
Fab397 (Fab, V domains shown, also called mAb397; source: ExpiCHO cells, purified (HiTrap Protein G, SEC)) VH: EVQLVKSGGGLVKPGGSLRLSCAVSGFTFTDAWMSWVRQAPGKGPEWVGRIKSNPDGGTTDYAAPVRGRFTISRDDSKNTLYLQMNNLKTEDTAVYYCITDRDFYRSGGSWGQGTLVTV VL: DIVMTQSPLSLPVTPGEPASISCRSRQSLLYSNGDNYLDWYLQKPGQSPQLLIYLGSNRAPGVPDRFSGSGSGTDFTLKISRVEAEDVGVYYCMQTLQTPHTFGQGTKLEIK | 1.3
